Each item that follows carries a reported DC50.
assaySystem: SMARCA4 (Homo sapiens, UniProt P51532)
Construct: SMARCA4-HiBiT knock-in Hela monoclonal cell (CS3023226); host or cells: HeLa monoclonal cells with heterozygous HiBiT knock-in at the endogenous SMARCA4 locus
Sequence (P51532 whole entry): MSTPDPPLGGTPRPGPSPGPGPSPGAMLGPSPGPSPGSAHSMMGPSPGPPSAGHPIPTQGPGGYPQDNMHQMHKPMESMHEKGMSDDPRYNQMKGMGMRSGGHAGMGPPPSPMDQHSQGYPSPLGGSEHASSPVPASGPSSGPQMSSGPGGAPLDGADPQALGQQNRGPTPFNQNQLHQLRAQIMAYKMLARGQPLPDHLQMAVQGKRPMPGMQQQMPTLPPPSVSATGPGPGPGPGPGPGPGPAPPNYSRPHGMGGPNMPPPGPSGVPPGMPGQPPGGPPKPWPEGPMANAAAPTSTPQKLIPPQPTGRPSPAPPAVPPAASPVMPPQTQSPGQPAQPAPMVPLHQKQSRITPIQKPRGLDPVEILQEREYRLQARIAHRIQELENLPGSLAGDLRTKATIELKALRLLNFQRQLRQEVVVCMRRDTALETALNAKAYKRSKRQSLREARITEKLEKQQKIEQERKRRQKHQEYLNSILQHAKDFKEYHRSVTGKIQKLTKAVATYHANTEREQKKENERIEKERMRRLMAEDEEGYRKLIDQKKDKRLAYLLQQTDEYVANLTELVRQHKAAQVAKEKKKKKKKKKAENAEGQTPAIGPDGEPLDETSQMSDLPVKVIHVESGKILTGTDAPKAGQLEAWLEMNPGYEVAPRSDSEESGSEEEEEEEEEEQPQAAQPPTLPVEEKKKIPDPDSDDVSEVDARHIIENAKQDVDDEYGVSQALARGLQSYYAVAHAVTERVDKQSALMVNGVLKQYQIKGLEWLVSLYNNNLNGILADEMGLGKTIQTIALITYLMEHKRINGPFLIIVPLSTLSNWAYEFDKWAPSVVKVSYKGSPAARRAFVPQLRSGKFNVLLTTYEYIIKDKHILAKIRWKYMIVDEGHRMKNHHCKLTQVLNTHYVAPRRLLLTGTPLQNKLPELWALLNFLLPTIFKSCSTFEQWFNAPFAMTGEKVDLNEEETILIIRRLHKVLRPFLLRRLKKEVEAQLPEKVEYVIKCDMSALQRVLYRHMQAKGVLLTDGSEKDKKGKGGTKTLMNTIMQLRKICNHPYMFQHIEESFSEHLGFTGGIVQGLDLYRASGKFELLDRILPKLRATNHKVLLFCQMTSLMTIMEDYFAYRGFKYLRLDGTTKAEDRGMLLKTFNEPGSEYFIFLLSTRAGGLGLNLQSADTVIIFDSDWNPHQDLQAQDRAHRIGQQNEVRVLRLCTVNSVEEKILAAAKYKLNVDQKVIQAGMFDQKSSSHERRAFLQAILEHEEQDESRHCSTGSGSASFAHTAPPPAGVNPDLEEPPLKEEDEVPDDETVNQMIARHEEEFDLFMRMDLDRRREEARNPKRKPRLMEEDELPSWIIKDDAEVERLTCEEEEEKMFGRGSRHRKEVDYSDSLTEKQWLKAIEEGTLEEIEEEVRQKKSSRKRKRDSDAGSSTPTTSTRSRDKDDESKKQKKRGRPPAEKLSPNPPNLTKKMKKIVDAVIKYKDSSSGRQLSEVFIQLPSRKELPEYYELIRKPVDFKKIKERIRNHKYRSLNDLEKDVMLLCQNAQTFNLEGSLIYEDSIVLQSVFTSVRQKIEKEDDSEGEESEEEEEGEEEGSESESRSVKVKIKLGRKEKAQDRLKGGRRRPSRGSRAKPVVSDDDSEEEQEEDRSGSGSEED
assayName: SMARCA4 HiBiT degradation assay in HeLa cells
Format: cell-based
appliedConditions: 18 hours, highest concentration 10 μM

Read the entry CC[C@]12CNc3nnc(-c4cccc(C)c4O)cc3N1C[C@H](Oc1cc(C)c(CN3CCC(c4ccc5c(c4)C(=O)N([C@H]4CCC(=O)NC4=O)C5)CC3)cn1)C2 [Example 98] and write its reported DC50. < 100 nM

Numbers sourced from patent US20240165244A1.
